// data source = patent US20260049077A1

Assay: Pharmacokinetics of CDD-3031 in mice, oral gavage
Format: in vivo, mouse
Conditions: mouse, blood, oral gavage 50 mg/kg, n = 3, mean ± SD
Method: CDD-2330 was dissolved in 10% DMSO+0.5% methyl cellulose at 5 mg/mL. CDD-2330 was orally delivered at 50 mg/kg to mice (n=4). Blood samples were collected at 0, 0.25, 0.5, 1, 2, 4, 6, 8, and 24 h. Samples were analyzed by LC-MS, and the concentration of CDD-2330 was quantified with a standard curve (range: 0-10 μM). CDD-3031 was administered by oral gavage at a dose of 50 mg/kg. Blood samples were collected at […], 0.167, 0.25, 0.5, 1, 2, 4, 6, 8, and 24 h.
quantity_name: half-life (h)

> print(dat)
                                   compound  observed
1  CN(Cc1ccn2ncc(C(N)=O)c2c1)C(=O)Nc1ccc(OC(F)(F)F)cc1 [CDD-3031]      8.03

----------
molecular target: NTRK1 (Homo sapiens (Human), UniProt P04629); test: NTRK1 inhibition (IC50); details: read-out: NTRK1 IC50
Sequence (P04629 33-796): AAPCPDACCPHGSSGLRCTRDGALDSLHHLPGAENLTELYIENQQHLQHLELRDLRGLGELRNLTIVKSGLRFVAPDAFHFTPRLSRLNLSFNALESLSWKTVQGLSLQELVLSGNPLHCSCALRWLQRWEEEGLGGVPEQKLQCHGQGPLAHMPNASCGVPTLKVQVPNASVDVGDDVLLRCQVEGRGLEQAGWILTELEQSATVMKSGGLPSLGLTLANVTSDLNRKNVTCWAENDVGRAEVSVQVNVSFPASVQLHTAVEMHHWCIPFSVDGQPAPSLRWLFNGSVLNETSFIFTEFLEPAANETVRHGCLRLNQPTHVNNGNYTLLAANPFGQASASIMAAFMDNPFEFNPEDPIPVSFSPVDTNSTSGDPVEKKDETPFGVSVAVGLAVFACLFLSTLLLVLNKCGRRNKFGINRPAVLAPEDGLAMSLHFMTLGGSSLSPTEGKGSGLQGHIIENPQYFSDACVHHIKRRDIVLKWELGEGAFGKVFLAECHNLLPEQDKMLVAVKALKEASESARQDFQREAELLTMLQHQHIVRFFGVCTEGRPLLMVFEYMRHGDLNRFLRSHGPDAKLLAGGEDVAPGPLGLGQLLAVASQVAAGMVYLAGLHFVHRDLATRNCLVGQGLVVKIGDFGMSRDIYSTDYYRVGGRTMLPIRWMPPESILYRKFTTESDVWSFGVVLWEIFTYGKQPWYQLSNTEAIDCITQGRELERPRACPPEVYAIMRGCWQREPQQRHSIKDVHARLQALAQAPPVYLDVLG
pIC50: −log10 of the molar value.
quantity_name: pIC50

> print(dat)
                                   compound  quantity.name  observed
1  CN(Cc1ccn2ncc(C(N)=O)c2c1)C(=O)COc1ccc(C(C)(C)C)cc1 [CDD-3183]          pIC50      5.44
2  CN(Cc1ccn2ncc(C(N)=O)c2c1)S(=O)(=O)Nc1ccc(OC(F)(F)F)cc1 [CDD-3308]          pIC50      4.55
3  CC(C)N(Cc1ccn2ncc(C(N)=O)c2c1)C(=O)COc1ccc(C(C)(C)C)cc1 [CDD-3184]          pIC50      7.21
4  CC(C)N(Cc1ccn2nccc2c1)C(=O)Nc1ccc(OC(F)(F)F)cc1 [CDD-2299]          pIC50      7.51
5  CC(=O)c1ccc(OCC(=O)N(Cc2ccn3ncc(C(N)=O)c3c2)C(C)C)cc1 [CDD-3256]          pIC50      5.73
6  CN(Cc1ccn2ncc(C(N)=O)c2c1)C(=O)CCc1ccc(OC(F)(F)F)cc1 [CDD-3121]          pIC50      4.94
7  CC(C)c1ccc(OCC(=O)N(C)Cc2ccn3ncc(C(N)=O)c3c2)cc1 [CDD-3120]          pIC50      5.75
8  CC(C)c1ccc(OCC(=O)NCc2ccn3ncc(C(N)=O)c3c2)cc1 [CDD-3129]          pIC50      5.02
9  CC(=O)c1ccc(OCC(=O)N(C)Cc2ccn3ncc(C(N)=O)c3c2)cc1 [CDD-3257]          pIC50      4.24

----------
experiment: Metabolic stability in mouse liver microsomes (MLM)
Mark t only for half-life values smaller than 0.9 h; exact matches and larger values are f.

> print(dat)
                                    compound  category.label
 1  CC(=O)c1ccc(OCC(=O)N(C)Cc2ccn3ncc(C(N)=O)c3c2)cc1               f
 2  CC(=O)c1ccc(OCC(=O)N(Cc2ccn3ncc(C(N)=O)c3c2)C(C)C)cc1               f
 3  CN(Cc1ccn2ncc(C(N)=O)c2c1)C(=O)CNc1ccc(OC(F)(F)F)cc1               f
 4  C=C(C)c1ccc(OCC(=O)N(Cc2ccn3ncc(C(N)=O)c3c2)C(C)C)cc1               t
 5  C[C@@H]1CCc2ncc(F)cc2[C@H]2CCCN2c2ccn3ncc(c3n2)C(=O)N1 [Selitrectinib, reference compound]               t
 6  CC(C)N(Cc1ccn2ncc(C(N)=O)c2c1)C(=O)COc1ccc(OC(F)(F)F)cc1               f
 7  CC(C)N(Cc1ccn2ncc(C(N)=O)c2c1)C(=O)COc1ccc(C(C)(C)C)cc1               t
 8  CC(C)N(Cc1ccn2ncc(C#N)c2c1)C(=O)Nc1ccc(OC(F)(F)F)cc1               t
 9  CC(C)N(Cc1ccn2ncc(C(=N)NO)c2c1)C(=O)Nc1ccc(OC(F)(F)F)cc1               f
10     Cc1nnc2n1-c1ccc(Cl)cc1C(c1ccccc1)=NC2               f
11  NC(=O)c1cnn2ccc(CNC(=S)Nc3ccc(OC(F)(F)F)cc3)cc12               f
12  CC(C)c1ccc(OCC(=O)N(Cc2ccn3ncc(C(N)=O)c3c2)C(C)C)cc1               t
13  CC(C)N(Cc1ccn2nccc2c1)C(=O)Nc1ccc(OC(F)(F)F)cc1               t
14  O=C(Nc1cccc(C(F)(F)F)c1)N(Cc1ccn2nccc2c1)C1CCC1               t
15  CC(C)N(Cc1ccn2ncc(C(=O)O)c2c1)C(=O)Nc1ccc(OC(F)(F)F)cc1               f
16  CN(Cc1ccn2ncc(C(N)=O)c2c1)C(=O)Nc1ccc(OC(F)(F)F)cc1               f
17  O=C(Nc1ccc(OC(F)(F)F)cc1)N(Cc1ccn2nccc2c1)C1CC1               f

----------
experiment: Pharmacokinetics of CDD-3031 in mice, oral gavage; type: in vivo, mouse; settings: mouse, blood, oral gavage 50 mg/kg, n = 3, mean ± SD
quantity_name: Cmax (µM)

> print(dat)
                  compound.structure.string  quantity.name  observed
1  CN(Cc1ccn2ncc(C(N)=O)c2c1)C(=O)Nc1ccc(OC(F)(F)F)cc1           Cmax      37.1

----------
assay: Brain uptake in mice 24 hours post-administration; assay type: in vivo, mouse; conditions: mouse, brain, 24 h, read-out: Brain Concentration at 24 h (ng/mg)
Label key: 1 means concentration at 24 h under 400 ng/g; 0 means concentration at 24 h of 400 ng/g or more.

> print(dat)
                                   compound  category.label
1  CC(C)N(Cc1ccn2ncc(C(N)=O)c2c1)C(=O)Nc1ccc(OC(F)(F)F)cc1 [CDD-2737]               1
2  NC(=O)c1cnn2ccc(CN(C(=O)Nc3ccc(OC(F)(F)F)cc3)C3CC3)cc12 [CDD-2738]               0
3  CC(C)N(Cc1ccn2ncc(C(N)=O)c2c1)C(=S)Nc1ccc(OC(F)(F)F)cc1 [CDD-3119]               1
4  CN(Cc1ccn2ncc(C(N)=O)c2c1)C(=O)Nc1ccc(OC(F)(F)F)cc1 [CDD-3031]               1
5  CC(C)(CO)n1cc(C(=O)c2cncc(NC(=O)Cc3ccc(Cl)cn3)c2)c2cnc(N)nc21 [PF-06273340, reference compound]               1

----------
assay: Pharmacokinetics of CDD-3031 in mice, oral gavage; type: in vivo, mouse; details: mouse, blood, oral gavage 50 mg/kg, n = 3, mean ± SD
quantity_name: AUC(0-t) (µM·h)

> print(dat)
                                   molecule  quantity.name  reading.unit  observed
1  CN(Cc1ccn2ncc(C(N)=O)c2c1)C(=O)Nc1ccc(OC(F)(F)F)cc1 [CDD-3031]       AUC(0-t)          µM·h       418

----------
test: Pharmacokinetics of CDD-3031 in mice, oral gavage; assay type: in vivo, mouse; conditions: mouse, blood, oral gavage 50 mg/kg, n = 3, mean ± SD
quantity_name: AUC(0-inf) (µM·h)

> print(dat)
                                   compound  reading.unit  observed
1  CN(Cc1ccn2ncc(C(N)=O)c2c1)C(=O)Nc1ccc(OC(F)(F)F)cc1 [CDD-3031]          µM·h       478

----------
Parameter: log10(half-life). Scope: all listed entries.
experiment: Metabolic stability in mouse liver microsomes (MLM)
quantity_name: log10(half-life) (log10 of the value in h)

> print(dat)
                                   compound     quantity.name  observed
1  CC(C)(CO)n1cc(C(=O)c2cncc(NC(=O)Cc3ccc(Cl)cn3)c2)c2cnc(N)nc21 [PF-06273340, reference compound]  log10(half-life)      0.53
2  CC(C)N(Cc1ccn2ncc(F)c2c1)C(=O)Nc1ccc(OC(F)(F)F)cc1  log10(half-life)     -0.46
3  O=C(O)c1cnn2ccc(CN(C(=O)Nc3ccc(OC(F)(F)F)cc3)C3CCC3)cc12  log10(half-life)      0.95
4  CN(Cc1ccn2ncc(C(N)=O)c2c1)C(=S)Nc1ccc(OC(F)(F)F)cc1  log10(half-life)      1.06
5  CC(C)N(Cc1ccn2ncc(C(N)=O)c2c1)C(=O)CNc1ccc(OC(F)(F)F)cc1  log10(half-life)      0.38
6  O=C(Nc1ccc(OC(F)(F)F)cc1)N(Cc1ccn2nccc2c1)C1CCCC1  log10(half-life)     -0.23
7  O=C(Nc1ccccc1C(F)(F)F)N(Cc1ccn2nccc2c1)C1CCC1  log10(half-life)     -1.08
